# measured_on: hAC1 (Homo sapiens)
# Construct: expressed in transfected cells
# method_description: Cyclic AMP accumulation in HEK cells stably expressing AC1, stimulated with A23187 (HTRF)
# Type: cell-based
# condition_info: HEK293; HEK-AC1 cells, 30 μM
Reported values of inhibition at 30 µM for individual entries
Form entry: value (%) — number only.

Entry O=C(Nc1nnc(-c2ccc3c(c2)CCCC3)o1)c1ccccc1 : reported inhibition at 30 µM = ?
100

Entry COc1cccc(C(=O)Nc2nnc(-c3ccc(F)cc3)o2)c1 : reported inhibition at 30 µM = ?
79

Entry O=C(Nc1nnc(C2CCCCC2)o1)c1ccc(F)cc1 : reported inhibition at 30 µM = ?
74

Entry COc1ccc(C(=O)Nc2nnc(-c3cccs3)o2)cc1 : reported inhibition at 30 µM = ?
80

====

# measured_on: hAC1 (Homo sapiens, UniProt Q08828)
# Construct: expressed in transfected cells
# Sequence (Q08828 whole entry): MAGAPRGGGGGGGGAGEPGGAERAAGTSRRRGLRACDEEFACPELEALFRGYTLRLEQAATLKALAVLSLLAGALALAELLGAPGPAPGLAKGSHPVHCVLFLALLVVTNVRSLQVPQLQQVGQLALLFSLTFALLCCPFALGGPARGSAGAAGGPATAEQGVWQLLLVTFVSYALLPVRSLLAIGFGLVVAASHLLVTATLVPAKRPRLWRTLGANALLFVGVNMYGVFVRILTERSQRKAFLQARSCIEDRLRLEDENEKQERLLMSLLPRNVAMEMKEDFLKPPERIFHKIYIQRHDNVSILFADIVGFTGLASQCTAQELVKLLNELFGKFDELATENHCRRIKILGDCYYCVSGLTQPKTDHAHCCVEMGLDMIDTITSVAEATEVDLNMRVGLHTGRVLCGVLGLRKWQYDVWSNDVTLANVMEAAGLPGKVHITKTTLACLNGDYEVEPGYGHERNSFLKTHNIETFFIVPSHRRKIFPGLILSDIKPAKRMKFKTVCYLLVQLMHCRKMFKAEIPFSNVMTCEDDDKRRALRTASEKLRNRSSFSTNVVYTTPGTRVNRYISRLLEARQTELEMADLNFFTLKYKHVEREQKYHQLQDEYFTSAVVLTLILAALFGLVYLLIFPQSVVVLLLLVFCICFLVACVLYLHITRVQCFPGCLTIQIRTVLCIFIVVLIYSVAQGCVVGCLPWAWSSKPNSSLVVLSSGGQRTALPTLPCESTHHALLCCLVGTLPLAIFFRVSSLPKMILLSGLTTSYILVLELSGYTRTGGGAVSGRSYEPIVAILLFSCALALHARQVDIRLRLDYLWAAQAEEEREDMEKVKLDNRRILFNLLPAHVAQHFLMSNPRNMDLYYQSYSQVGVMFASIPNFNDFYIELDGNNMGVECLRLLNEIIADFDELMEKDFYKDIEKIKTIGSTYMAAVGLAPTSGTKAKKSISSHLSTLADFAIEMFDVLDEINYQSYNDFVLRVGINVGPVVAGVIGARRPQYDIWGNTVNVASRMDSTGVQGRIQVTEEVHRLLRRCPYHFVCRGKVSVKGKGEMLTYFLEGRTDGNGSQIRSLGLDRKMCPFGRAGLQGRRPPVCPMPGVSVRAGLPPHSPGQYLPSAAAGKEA
# method_description: Cyclic AMP accumulation in HEK cells stably expressing AC1, stimulated with A23187 (HTRF)
# Assay type: cell-based
# condition_info: HEK-AC1 cells; read-out: HEK-AC1 IC50
assay_readout: pIC50
# pIC50 is unitless: minus log10 of the molar concentration; print number only

Use these answered entries as a reference point.
- compound: "CCc1ccc(C(=O)Nc2nnc(-c3ccc4c(c3)CCCC4)o2)cc1 [AC10062]"
  pIC50: 5.92
- compound: "CCc1ccc(C(=O)Nc2nnc(C3CCCCC3)o2)cc1 [AC10045]"
  pIC50: 5.14

Next compound, please.
Entry Cc1ccc(C(=O)Nc2nnc(-c3ccc(F)cc3)o2)cc1 [AC10031] : reported pIC50 = ?
5.14

====

# measured_on: hAC1 (Homo sapiens, UniProt Q08828)
# Construct: expressed in transfected cells
# method_description: Cyclic AMP accumulation in HEK cells stably expressing AC1, stimulated with A23187 (HTRF)
# Type: cell-based
# condition_info: HEK-AC1 cells; read-out: HEK-AC1 IC50
assay_readout: IC50 (µM)
Form entry: value (µM) — number only.

Use these answered entries as a reference point.
- line_notation: "O=C(Nc1nnc(-c2ccc3c(c2)CCCC3)o1)c1cccc(F)c1"
  assay_readout: "IC50"
  numeric_value: 1
- line_notation: "Cc1ccc(C(=O)Nc2nnc(-c3ccc(F)cc3)o2)cc1C(F)(F)F"
  assay_readout: "IC50"
  numeric_value: 4.6
- line_notation: "O=C(Nc1nnc(-c2cccs2)o1)c1ccc(Br)cc1"
  assay_readout: "IC50"
  numeric_value: 7.7
- line_notation: "COc1cccc(C(=O)Nc2nnc(-c3ccc4c(c3)OCCO4)o2)c1"
  assay_readout: "IC50"
  numeric_value: 9.6
- line_notation: "O=C(Nc1nnc(-c2ccc3c(c2)OCCO3)o1)c1ccc(Br)cc1"
  assay_readout: "IC50"
  numeric_value: 3.4
- line_notation: "CSc1cccc(C(=O)Nc2nnc(-c3cccs3)o2)c1"
  assay_readout: "IC50"
  numeric_value: 11
- line_notation: "Cc1ccc(C(=O)Nc2nnc(-c3ccc4c(c3)OCCO4)o2)cc1"
  assay_readout: "IC50"
  numeric_value: 11.5
- line_notation: "Cc1ccc(C(=O)Nc2nnc(-c3ccc4c(c3)CCCC4)o2)cc1C(F)(F)F"
  assay_readout: "IC50"
  numeric_value: 26

Entry O=C(Nc1nnc(-c2ccc3c(c2)CCCC3)o1)c1ccc(F)cc1 : reported IC50 = ?
5.9

Entry O=C(Nc1nnc(C2CCCCC2)o1)c1cccc(C(F)(F)F)c1 : reported IC50 = ?
6

Entry O=C(Nc1nnc(-c2ccc(F)cc2)o1)c1cccc(F)c1 : reported IC50 = ?
10.6
